targetSystem: Mitogen-activated protein kinase kinase kinase 7, TAK1 kinase (Homo sapiens) (UniProt O43318)
Sequence (O43318 whole entry, looked up): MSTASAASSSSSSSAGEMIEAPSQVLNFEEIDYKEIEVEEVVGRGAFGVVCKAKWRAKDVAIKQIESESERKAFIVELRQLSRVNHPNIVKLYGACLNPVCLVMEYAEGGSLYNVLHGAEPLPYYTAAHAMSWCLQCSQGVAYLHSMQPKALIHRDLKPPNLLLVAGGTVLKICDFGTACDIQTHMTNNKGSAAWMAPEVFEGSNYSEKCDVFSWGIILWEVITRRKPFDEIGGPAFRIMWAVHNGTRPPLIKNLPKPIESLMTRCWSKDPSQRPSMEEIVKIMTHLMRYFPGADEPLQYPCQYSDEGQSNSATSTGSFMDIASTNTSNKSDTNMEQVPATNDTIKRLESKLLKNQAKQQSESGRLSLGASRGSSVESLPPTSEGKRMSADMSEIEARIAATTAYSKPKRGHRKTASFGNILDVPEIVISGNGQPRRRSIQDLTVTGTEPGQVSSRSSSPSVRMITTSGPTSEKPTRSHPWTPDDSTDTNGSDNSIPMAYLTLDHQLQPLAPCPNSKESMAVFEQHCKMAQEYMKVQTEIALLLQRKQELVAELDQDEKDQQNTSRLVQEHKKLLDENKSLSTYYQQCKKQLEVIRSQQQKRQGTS
protocolDescription: Inhibition of Tak1 (unknown origin) in presence of ATP
outcomeMeasure: IC50

So what's the measured IC50 for this one? C[C@H]1CC(=O)Nc2cc(C(=O)NCCC3CC3)ccc2N1C(=O)N1CC2CC2C1 (stereo partly specified)
> 2 nM
